Please respond with reported IC50 of fatty acid uptake inhibition (BODIPY FL C16, HEK hCD36 cells) for every item in the list.
# System under test: human CD36 (on HEK 293 or SCC25 cells) (human, UniProt P16671 2-472)
# Sequence (P16671 2-472 limits assumed): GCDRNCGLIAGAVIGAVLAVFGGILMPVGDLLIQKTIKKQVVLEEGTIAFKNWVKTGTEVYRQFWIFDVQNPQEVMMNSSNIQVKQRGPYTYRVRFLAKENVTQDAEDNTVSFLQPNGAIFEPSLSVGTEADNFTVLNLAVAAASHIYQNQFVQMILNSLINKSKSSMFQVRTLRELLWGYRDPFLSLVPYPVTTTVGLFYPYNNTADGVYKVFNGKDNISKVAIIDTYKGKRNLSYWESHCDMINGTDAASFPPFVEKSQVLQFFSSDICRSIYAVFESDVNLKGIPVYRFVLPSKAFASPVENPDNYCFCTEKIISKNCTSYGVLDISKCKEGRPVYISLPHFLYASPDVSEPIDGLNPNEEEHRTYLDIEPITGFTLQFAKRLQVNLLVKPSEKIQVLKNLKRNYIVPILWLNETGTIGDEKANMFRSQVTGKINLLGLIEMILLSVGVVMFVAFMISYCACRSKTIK
# Test protocol: cell-based or functional assay
One number for each entry, in nM.

1) 32G04 (antibody, human IgG1, V domains shown, Chimeric: mouse variable regions on human IgG1 LALA (L234A/L235A); also called 032G04) VH: EEKLEESGGGLVQPGGSMKLSCVASGFTFSNYWMNWVRQSPEKGLEWVAEIRLKSNNYATHYAESVKGRFTISRDDSKSSVYLQMNNLRAEDTGIYYCTPLLLRWGQGTTLTVSS VL: ENVLTQSPAIMSASPGEKVTMTCRASSSLSSTYLHWYQQKSGASPKLWIYSTSNLASGVPARFSGSGSGTSYSLTISSVEAEDAATYYCQQYSGYPLTFGSGTKLEIK :: 42
2) 37G04 (antibody, human IgG1, V domains shown, Chimeric: chicken variable regions on human IgG1 LALA (L234A/L235A); also called 037G04) VH: AVTLDESGGGLQTPGGALSLVCKASGFTFSDYDMLWVRQAPGKGLEFVAGINAASTYTDYGAAVKGRATISRDNGQSTVRLQVNNLRAEDTGTYYCAKSSYGGGWSDVGSIDAWGHGTEVIVSS VL: ALTQPSSVSANPGETVKITCSGDRSYYGYGWYQQKAPGSAPVTVIYWDDKRPSDIPSRFSGSTSGSTATLTITGVQAEDEAVYFCGNMDSSYVGMFGAGTTLTVL :: 0.3
3) 34G04 (antibody, human IgG1, V domains shown, Chimeric: chicken variable regions on human IgG1 LALA (L234A/L235A); also called 034G04) VH: AVTLDESGGGLQTPGGALSLVCKASGFDFSSYAMGWVRQAPGKGLEWVAGKAKDGGGTAYGSAVKGRATISRDNGQSTVRLQLSNLRAEDTGVYYCAKSAYGDWFYGSSGPYADSIDAWGHGTEVIVSS VL: ALTQPSSVSANPGETVKITCSGGDNYAGSYYYGWYQQKSPGSAPVTVIYDDTNRPADIPSRFSGSTSGSTNTLTITGVRAEDEAVYFCGGWDSINDRNIFGAGTTLTVL :: 0.2
4) 12G04 (antibody, human IgG1, V domains shown, Chimeric: mouse variable regions on human IgG1 LALA (L234A/L235A); also called 012G04) VH: EVQLVESGGGLVQPGESLKLSCESNEYEFPSHDMSWVRKTPEKRLELVAAINSDGGYTYYPDTMERRFIISRDNTKKTLYLQMSSLRSEDTALYYCARHGYDYDEEGAWFAYWGQGTLVTVSA VL: ETTVTQSPASLSMAIGEKVTIRCITSTDIDDDMNWYQQKPGEPPKLLISEGNTLRPGVPSRFSSTGYGTDFVFSIENMLSEDVADYYCLQSDNLPFTFGSGTKLEIK :: 3.9

Here's the next entry for you.
Item: 38G04 (antibody, human IgG1, V domains shown, Chimeric: chicken variable regions on human IgG1 LALA (L234A/L235A); also called 038G04) VH: AVTLDESGGGLQTPGRALSLVCKASGFTFSSYNMFWVRQAPGKGLEWVAGIDDDGSFTLYGAAVKGRATISRDNGQSTVRLQLNNLRAEDTGTYYCARDSGAVSIDAWGHGTEVIVSS VL: ALTQPSSVSANPGETVKITCSGGDSDYGWYQQKSPGSAPVTVIYQNDKRPSDIPSRFSGSASGSTATFTITGVQAEDEAVYYCGGWDGSYDGAVFGAGTTLTVL | IC50 of fatty acid uptake inhibition (BODIPY FL C16, HEK hCD36 cells): 0.18
